System: SARS-CoV
TEST_SUMMARY: microbe, parasite or virus in culture
Format: cell-based
TEST_CONTEXT: Severe acute respiratory syndrome coronavirus, Vero C1008, read-out: EC50 SARS-CoV

MOLECULE	EC50 / nM
O=C(/C=C/c1ccccc1)N[C@@H](CC1CCCCC1)C(=O)N[C@@H](C[C@@H]1CCNC1=O)C(=O)C(=O)NCc1ccccc1 [DZL08, reference compound]	2100

* * *

TEST_SUMMARY: pharmacokinetic study 2 mg/kg i.v.
Type: in vivo
TEST_CONTEXT: in vivo, iv; 2 mg/kg i.v.

MOLECULE	clearance [mL/min/kg]
CC(C)(C)OC(=O)Nc1cccn([C@@H](CC2CCCCC2)C(=O)N[C@@H](C[C@@H]2CCNC2=O)C(=O)C(=O)NC2CC2)c1=O	178
O=C(/C=C/c1ccccc1)N[C@@H](CC1CCCCC1)C(=O)N[C@@H](C[C@@H]1CCNC1=O)C(=O)C(=O)NCc1ccccc1 [DZL08, reference compound]	292
